Measured Kd accompanies every entry in the list below.
Biological target: T1, Monomeric human CD48-mmH (human)
T1 chain: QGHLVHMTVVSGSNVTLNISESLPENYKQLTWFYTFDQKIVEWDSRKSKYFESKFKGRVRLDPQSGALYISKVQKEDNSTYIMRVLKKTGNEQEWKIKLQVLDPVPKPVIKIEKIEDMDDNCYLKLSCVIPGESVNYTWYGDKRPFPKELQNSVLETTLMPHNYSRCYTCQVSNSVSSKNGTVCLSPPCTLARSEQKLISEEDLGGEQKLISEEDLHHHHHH
Test: SPR (Biacore), antibody captured by anti-Fc, CD48 in solution, 37 C
readout.type: Kd

INSERT INTO assay_data (binder, result) VALUES
  ('H4H1770P (antibody, human IgG4, V domains shown, Human IgG4 Fc (H4H)) VH: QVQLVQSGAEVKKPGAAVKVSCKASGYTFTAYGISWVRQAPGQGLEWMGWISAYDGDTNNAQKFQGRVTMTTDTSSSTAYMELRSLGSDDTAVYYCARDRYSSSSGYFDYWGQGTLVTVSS VL: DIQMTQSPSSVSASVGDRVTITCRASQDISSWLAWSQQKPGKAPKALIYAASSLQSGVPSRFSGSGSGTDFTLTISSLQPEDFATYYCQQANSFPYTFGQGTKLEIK', '0.662 nM'),
  ('H4H1781P (antibody, human IgG4, V domains shown, Human IgG4 Fc (H4H)) VH: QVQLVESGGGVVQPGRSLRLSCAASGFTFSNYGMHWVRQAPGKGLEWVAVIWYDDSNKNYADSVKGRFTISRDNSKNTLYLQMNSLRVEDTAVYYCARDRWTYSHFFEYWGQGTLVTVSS VL: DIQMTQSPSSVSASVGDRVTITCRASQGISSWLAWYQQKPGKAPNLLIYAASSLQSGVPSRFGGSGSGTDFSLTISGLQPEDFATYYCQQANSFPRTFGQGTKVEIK', '0.448 nM'),
  ('H2M1707N (antibody, V domains shown, Human variable domains, mouse IgG2 Fc (H2M)) VH: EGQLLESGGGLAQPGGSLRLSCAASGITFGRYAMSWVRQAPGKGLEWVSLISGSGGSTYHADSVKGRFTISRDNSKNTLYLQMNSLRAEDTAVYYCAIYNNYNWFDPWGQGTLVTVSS VL: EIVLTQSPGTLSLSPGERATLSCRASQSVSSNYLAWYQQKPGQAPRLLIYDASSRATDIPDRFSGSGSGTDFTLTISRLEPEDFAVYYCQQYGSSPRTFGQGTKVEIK', '14.7 nM');
